Origin of values: PubChem BioAssay (EPA / NIEHS)

experiment: Tanguay_ZF_120hpf_EYE_legacy: (Legacy) Oregon State University Tanguay Lab 120 Hour Post-fertilization zebrafish Assay for Eye Malformation (AID 2283636);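 further: binary presence or absence of eye malformation scored by brightfield in 120 hpf larvae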
Results filed as inconclusive are left out. Active and inactive are the calls of the source. How the source made its calls: active means hit-call score of the fitted dose curve at least 0.9, where 1 is the maximum; inconclusive means response in the unintended direction; inactive means score below 0.9.
Returns: one label drawn from active, inactive

compound: CCN(CC)CCO
assignedLabel: inactive

compound: Brc1ccc(Oc2ccccc2)cc1
assignedLabel: inactive

Can you look up the reported call for C=CCc1ccc2c(c1)OCO2 for me? inactive

Can you look up the reported call for CCCSC(=O)N(CCC)CCC for me? inactive

* * *

read-out: Interleukin-8 (IL8), CXCL8 (gene 3576); test: BSK_LPS_IL8: BioMAP Diversity Plus: LPS Assay for Interleukin-8 (IL8) Biomarker Activity (AID 2283078); conditions: primary human HUVEC with PBMC; actives raise or lower the signal
Active and inactive are the calls of the source. The calls were made as follows: active = hit-call score of the fitted dose curve at least 0.9, where 1 is the maximum; inactive = score below 0.9.
Returns: one label drawn from true = active, false = inactive

compound: Clc1ccccc1Cl
assignedLabel: false
--
compound: CCCSC(=O)N(CCC)CCC
assignedLabel: false
--
compound: CCCCCOC(=O)c1ccccc1C(=O)OCCCCC
assignedLabel: true
--
compound: O=C(Nc1ccccc1)c1ccccc1I
assignedLabel: false
--
compound: O=Cc1ccco1
assignedLabel: false

Can you look up the reported call for CO[C@@H]1[C@H](OC(=O)NC(=O)CCl)CC[C@]2(CO2)[C@H]1[C@@]1(C)O[C@@H]1CC=C(C)C for me? false

Can you look up the reported call for COP(=S)(OC)SCN1C(=O)c2ccccc2C1=O for me? false

Can you look up the reported call for O=C1CCCO1 for me? false

Can you look up the reported call for CC(C)(OOC(C)(C)c1ccccc1)c1ccccc1 for me? true

Can you look up the reported call for Cn1cc(-c2ccccc2)c(=O)c(-c2cccc(C(F)(F)F)c2)c1 for me? false

Can you look up the reported call for N#CC(Br)Br for me? false

Can you look up the reported call for CCCCCCCCCCCCCN1CC(C)OC(C)C1 (stereo not given) for me? false

Can you look up the reported call for CC(C)(O)c1cnn2c(-c3ccc(F)c(-c4c(F)cccc4C#N)c3)cnc2n1 for me? true

* * *

assay: Tanguay_ZF_120hpf_JAW_legacy: (Legacy) Oregon State University Tanguay Lab 120 Hour Post-fertilization zebrafish Assay for Jaw Malformation (AID 2283638)
Records with an inconclusive call do not appear. Calls of active or inactive are those of the source. Rule for the calls: active = hit-call score of the fitted dose curve at least 0.9, where 1 is the maximum; inconclusive = response in the unintended direction; inactive = score below 0.9.
Returns: one label drawn from t (active), f (inactive)

// below: answered compounds
compound: COP(=S)(OC)SCN1C(=O)c2ccccc2C1=O
assignedLabel: f

compound: Nc1ccc([N+](=O)[O-])cc1
assignedLabel: f

compound: CCN(CC)N=O
assignedLabel: f

compound: Cc1ccc(N)cc1
assignedLabel: f

compound: Cc1ccc(N=C=O)cc1N=C=O
assignedLabel: f

Can you look up the reported call for ClC1=C(Cl)C2(Cl)C3C(Cl)C=CC3C1(Cl)C2(Cl)Cl (stereo unspecified) for me? f

Can you look up the reported call for Cc1cc(N=Nc2ccccc2C)ccc1N for me? f

Can you look up the reported call for [O-][Cl+]O for me? f

Can you look up the reported call for Brc1ccc(Oc2ccccc2)cc1 for me? f

Can you look up the reported call for CCCCCCCCn1sccc1=O for me? f

Can you look up the reported call for ClCCOCCCl for me? f

Can you look up the reported call for CC(C)(C)OOC(=O)c1ccccc1 for me? f

Can you look up the reported call for c1ccc(C2CO2)cc1 (stereo unspecified) for me? f

Can you look up the reported call for [Cl-].[Cl-].[Hg+2] for me? t

Can you look up the reported call for CC(O)CCO (stereo unspecified) for me? f

Can you look up the reported call for CCC(C)c1ccc(O)cc1 (stereo unspecified) for me? f

* * *

read-out: Fatty Acid-Binding Protein 1 (FABP1), FABP1 (gene 2168); experiment: LTEA_HepaRG_FABP1: Life Technologies and Expression Analysis (LTEA) Assay for Fatty Acid-Binding Protein 1 (FABP1) using HepaRG (AID 2283494); conditions: mRNA level, 48 h; actives raise or lower the signal
The source made the active and inactive calls. How the source made its calls: active means hit-call score of the fitted dose curve at least 0.9, where 1 is the maximum; inactive means score below 0.9.
observable: AC50

compoundSmiles: CCCSC(=O)N(CCC)CCC
result: inactive

compoundSmiles: C=CCc1ccc2c(c1)OCO2
result: inactive

compoundSmiles: Nc1ccc(Cl)cc1N
result: 28.2 µM (active)

* * *

read-out: Protein phosphatase 2A (PPP2R4), PTPA (gene 5524); experiment: LTEA_HepaRG_PPP2R4: Life Technologies and Expression Analysis (LTEA) Assay for Protein phosphatase 2A (PPP2R4) using HepaRG (AID 2283522); settings: mRNA level, 48 h; actives raise or lower the signal
The source made the active and inactive calls. How the source made its calls: active means hit-call score of the fitted dose curve at least 0.9, where 1 is the maximum; inactive means score below 0.9.

compound: Oc1ccc2ccc3cccc4ccc1c2c34
AC50: inactive
--
compound: Nc1ccc(N=Nc2ccccc2)cc1
AC50: 21.1 µM (active)
--
compound: ClC1=C(Cl)C2(Cl)C3C(Cl)C=CC3C1(Cl)C2(Cl)Cl (centres undefined)
AC50: inactive
--
compound: CCC[CH2][Sn]([Cl])([CH2]CCC)[CH2]CCC
AC50: inactive

* * *

assay: APR_HepG2_P-H2AX_72hr: Apredica 72-hour HepG2 Assay for H2AX Phosphorylation (AID 2282916); settings: imaging, actives raise or lower the signal;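 further: phospho-histone H2A.x immunostain intensity per cell marking DNA damage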
The source made the active and inactive calls. The calls were made as follows: active = hit-call score of the fitted dose curve at least 0.9, where 1 is the maximum; inactive = score below 0.9.
Returns: one label drawn from yes for active, no for inactive

// below: answered molecules
molecule: CCOC(=O)[C@]1(c2ccccc2)Oc2ccccc2[C@@H]1N
assignedLabel: yes
//
molecule: Brc1ccc(Oc2ccccc2)cc1
assignedLabel: no
//
molecule: [Cl-].[Cl-].[Hg+2]
assignedLabel: no
//
molecule: COC(=O)Nc1nc2ccccc2[nH]1
assignedLabel: yes
//
molecule: N#CC(Br)Br
assignedLabel: yes

Can you look up the reported call for CN(C)[C@@H]1C(=O)C(C(N)=O)=C(O)[C@@]2(O)C(=O)C3=C(O)c4c(O)cccc4[C@@](C)(O)[C@H]3C[C@@H]12 for me? no

Can you look up the reported call for Cc1ccc(N)cc1 for me? no

Can you look up the reported call for CCCCC(CC)COC(=O)c1ccc(C(=O)OCC(CC)CCCC)c(C(=O)OCC(CC)CCCC)c1 (centres undefined) for me? no

Can you look up the reported call for CCN(CC)CCO for me? no

Can you look up the reported call for CCCCOC(=O)c1ccccc1C(=O)OCc1ccccc1 for me? no

* * *

read-out: Human Leukocyte Antigen - DR isotype (HLADR), HLA-DRA (gene 3122); assay: BSK_CASM3C_HLADR: BioMAP Diversity Plus: CASM3C Assay for Human Leukocyte Antigen - DR isotype (HLADR) Biomarker Activity (AID 2283043); conditions: primary human coronary artery smooth muscle cells; actives raise or lower the signal;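 further: cell-surface HLA-DR protein level quantified by ELISA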
Active and inactive are the calls of the source. Rule for the calls: active = hit-call score of the fitted dose curve at least 0.9, where 1 is the maximum; inactive = score below 0.9.
Returns: one label drawn from active, inactive

compound: C[N+](C)(C)CC1CO1 (centres undefined)
assignedLabel: inactive

Can you look up the reported call for CCCCCOC(=O)c1ccccc1C(=O)OCCCCC for me? inactive

Can you look up the reported call for Nc1ccc(N=Nc2ccccc2)cc1 for me? active

Can you look up the reported call for CCOc1cccc(C2(N3CCN(c4ccccc4)CC3)CCC(C)CC2)c1 (centres undefined) for me? inactive

Can you look up the reported call for CO[C@@H]1[C@H](OC(=O)NC(=O)CCl)CC[C@]2(CO2)[C@H]1[C@@]1(C)O[C@@H]1CC=C(C)C for me? active

Can you look up the reported call for Cc1cccc(N)c1N for me? inactive

* * *

test: APR_HepG2_MitoticArrest_72hr: Apredica 72-hour HepG2 Assay for Mitotic Arrest (AID 2282918); conditions: high-content imaging, actives raise or lower the signal
Active and inactive are the calls of the source. Rule for the calls: active = hit-call score of the fitted dose curve at least 0.9, where 1 is the maximum; inactive = score below 0.9.
Returns: one label drawn from active, inactive

molecule: Brc1ccc(Oc2ccccc2)cc1
assignedLabel: active
--
molecule: CCCCCCCCOC(=O)c1ccc(C(=O)OCCCCCCCC)c(C(=O)OCCCCCCCC)c1
assignedLabel: inactive
--
molecule: [As]#[In]
assignedLabel: inactive

Can you look up the reported call for OCCCBr for me? inactive

Can you look up the reported call for CCCCCOC(=O)c1ccccc1C(=O)OCCCCC for me? inactive

Can you look up the reported call for Clc1ccc(C(c2ccc(Cl)cc2)C(Cl)(Cl)Cl)cc1 for me? active

Can you look up the reported call for C=CCc1ccc2c(c1)OCO2 for me? inactive

Can you look up the reported call for CCCSC(=O)N(CCC)CCC for me? inactive

* * *

read-out: Vascular cell adhesion molecule 1 (VCAM1), VCAM1 (gene 7412); test: BSK_CASM3C_VCAM1: BioMAP Diversity Plus: CASM3C Assay for Vascular cell adhesion molecule 1 (VCAM1) Biomarker Activity (AID 2283055); conditions: primary human coronary artery smooth muscle cells; actives raise or lower the signal;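 further: VCAM-1 protein level quantified by ELISA on the cells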
Active and inactive are the calls of the source. The calls were made as follows: active = hit-call score of the fitted dose curve at least 0.9, where 1 is the maximum; inactive = score below 0.9.
Returns: one label drawn from active, inactive

// below: answered molecules
molecule: CCOc1cccc(C2(N3CCN(c4ccccc4)CC3)CCC(C)CC2)c1 (configuration not stated)
assignedLabel: inactive

molecule: c1ccc(C2CO2)cc1 (configuration not stated)
assignedLabel: inactive

molecule: O=C(Oc1ccc(Br)cc1)N1CCN2CCC1CC2
assignedLabel: inactive

molecule: ClC1=C(Cl)C2(Cl)C3C(Cl)C=CC3C1(Cl)C2(Cl)Cl (configuration not stated)
assignedLabel: active

Can you look up the reported call for [Cl-].[Cl-].[Hg+2] for me? active
